- system: Caspase-8 (Homo sapiens)
- Construct: mixing the compounds with the respective active caspases; purchased BioVision K158-100
- Sequence (Q14790 217-374 limits assumed): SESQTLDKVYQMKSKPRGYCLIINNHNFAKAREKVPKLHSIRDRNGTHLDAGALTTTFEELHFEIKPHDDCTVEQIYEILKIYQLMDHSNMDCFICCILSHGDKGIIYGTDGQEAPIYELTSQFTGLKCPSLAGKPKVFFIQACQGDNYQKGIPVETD
- Sequence (Q14790 385-479 limits assumed): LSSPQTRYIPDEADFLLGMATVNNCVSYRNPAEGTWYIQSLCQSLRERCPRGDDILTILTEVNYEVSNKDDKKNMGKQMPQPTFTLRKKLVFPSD
- experiment.notes: Caspase-8 inhibitor screening assay (BioVision kit, IETD-AFC)
- Assay type: biochemical
- condition.notes: read-out: IC50 Casp8
parameter.measured: IC50 (µM)
Please reply with the bare figure in µM and do not write the unit itself.

// solved cases for IC50 follow
molecule	parameter.measured	unit.info	reported.measurement
CCOC(=O)/C=C/[C@H](CC(=O)O)NC(=O)[C@H]1CCCN1C(=O)[C@@H](NC(=O)c1ccc2ccccc2n1)C(C)(C)C [Compound 118]	IC50	µM	21.1
CCOC(=O)/C=C/[C@H](CC(=O)O)NC(=O)[C@H]1CCCN1C(=O)[C@@H](NC(=O)c1ccc(N)c(Cl)c1)C(C)(C)C [Compound 116]	IC50	µM	0.6
CS(=O)(=O)/C=C/[C@H](CC(=O)O)NC(=O)[C@H]1CCCN1C(=O)[C@@H](NC(=O)[C@H](CC(=O)O)NC(=O)OCc1ccccc1)c1ccccc1 [Compound 30]	IC50	µM	32.5
CCOC(=O)/C=C/[C@H](CC(=O)O)NC(=O)[C@@H](NC(=O)[C@@H](NC(=O)[C@H](CC(=O)O)NC(=O)OCc1ccccc1)c1ccccc1)C(C)C [Compound 105, Z-Asp-Phg-Val-Asp Ethyl Vinyl Ester]	IC50	µM	2.62
CCC(C)[C@H](NC(=O)[C@H](CCC(=O)O)NC(=O)[C@@H](NC(=O)OCc1ccccc1)C(C)C)C(=O)N[C@H](/C=C/S(C)(=O)=O)CC(=O)O (stereo partly drawn) [Compound 38, Z-Val-Glu-Ile-Asp-methyl vinyl sulfone]	IC50	µM	0.66

Q. Fill blank: measured IC50 of the molecule CCOC(=O)/C(Cl)=C/[C@H](CC(=O)O)NC(=O)[C@H]1CCCN1C(=O)[C@@H](NC(=O)c1ccc(N)c(Cl)c1)C(C)(C)C [Compound 117] is ____.
A. 1.4
